Assay: clinical
Conditions: human, in vivo, 2.4 mg
Structures can show the parent of a compound that is named as a salt.
OBSERVATION TYPE: Tmax (h)
Output spec: scalar in h, unitless text.

Supply Tmax value. Item: O=C1CC[C@@]2(O)[C@H]3Cc4ccc(O)c5c4[C@@]2(CCN3CC2CC2)[C@H]1O5 [Naltrexone HCl Solution]
1.13

* * *

Assay: clinical
Conditions: human, in vivo, 2.4 mg
Structures can show the parent of a compound that is named as a salt.
OBSERVATION TYPE: concentration at 60 h (ng/mL)
Output spec: scalar in ng/mL, unitless text.

Supply concentration at 60 h value. Item: O=C1CC[C@@]2(O)[C@H]3Cc4ccc(O)c5c4[C@@]2(CCN3CC2CC2)[C@H]1O5 [Naltrexone HCl Solution]
0

* * *

Assay: clinical
Details: human, in vivo, 2.4 mg
Structures can show the parent of a compound that is named as a salt.
OBSERVATION TYPE: concentration at 48 h (ng/mL)
Output spec: scalar in ng/mL, unitless text.

Supply concentration at 48 h value. Item: O=C1CC[C@@]2(O)[C@H]3Cc4ccc(O)c5c4[C@@]2(CCN3CC2CC2)[C@H]1O5 [Naltrexone HCl Solution]
0

* * *

Assay: clinical
Settings: human, in vivo, 2.4 mg
Where a name gives a salt, the structure may show the parent alone.
OBSERVATION TYPE: concentration at 3 h (ng/mL)
Output spec: scalar in ng/mL, unitless text.

Supply concentration at 3 h value. Item: O=C1CC[C@@]2(O)[C@H]3Cc4ccc(O)c5c4[C@@]2(CCN3CC2CC2)[C@H]1O5 [Naltrexone HCl Solution]
0.286

* * *

Assay: clinical
Details: human, in vivo, 2.4 mg
Counter-ions that a name gives are not always drawn.
OBSERVATION TYPE: concentration at 5 h (ng/mL)
Output spec: scalar in ng/mL, unitless text.

Supply concentration at 5 h value. Item: O=C1CC[C@@]2(O)[C@H]3Cc4ccc(O)c5c4[C@@]2(CCN3CC2CC2)[C@H]1O5 [Naltrexone HCl Solution]
0.133

* * *

Test: clinical
Settings: human, in vivo, 2.4 mg
Counter-ions that a name gives are not always drawn.
OBSERVATION TYPE: concentration at 36 h
Output should be the measured figure followed by the unit it is expressed in.

Supply concentration at 36 h value. Item: O=C1CC[C@@]2(O)[C@H]3Cc4ccc(O)c5c4[C@@]2(CCN3CC2CC2)[C@H]1O5 [Naltrexone HCl Solution]
0.607 pg/mL

* * *

Test: clinical
Conditions: human, in vivo, 2.4 mg, Naltrexone AUC0-t, Mean, single dose 2.4 mg naltrexone, fasted
Where a name gives a salt, the structure may show the parent alone.
OBSERVATION TYPE: AUC(0-t) (ng·h/mL)
Output spec: scalar in ng·h/mL, unitless text.

Supply AUC(0-t) value. Item: O=C1CC[C@@]2(O)[C@H]3Cc4ccc(O)c5c4[C@@]2(CCN3CC2CC2)[C@H]1O5 [Naltrexone HCl Solution]
2.2

* * *

Assay: clinical
Conditions: human, in vivo, 2.4 mg
Structures can show the parent of a compound that is named as a salt.
OBSERVATION TYPE: concentration at 84 h (ng/mL)
Output spec: scalar in ng/mL, unitless text.

Supply concentration at 84 h value. Item: O=C1CC[C@@]2(O)[C@H]3Cc4ccc(O)c5c4[C@@]2(CCN3CC2CC2)[C@H]1O5 [Naltrexone HCl Solution]
0
